# ASSAYED_TARGET: T1, Human VEGFA165 (human, UniProt P15692-4 27-191)
# T1 construct: treated as the same molecule; also called antigen VEGFA
# T1 sequence (P15692 other isoform, or with tags, fused parts or gaps limits assumed): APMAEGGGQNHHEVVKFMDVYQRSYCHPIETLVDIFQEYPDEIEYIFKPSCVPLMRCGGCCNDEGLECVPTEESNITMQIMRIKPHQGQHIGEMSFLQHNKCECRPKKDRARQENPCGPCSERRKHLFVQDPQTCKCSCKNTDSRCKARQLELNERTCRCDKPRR
# MEASUREMENT_PROTOCOL: phage ELISA, VEGFA coated 0.5 µg/mL, anti-M13(HRP)
RESULT_TYPE: OD450 (OD450)
Give the value in OD450 but do not write OD450 after it.

V17 (VHH, Purified with C-terminal GGGGS-6×His) VHH: QLQLVESGGGSVQPGGSLRLSCEVSGRTFSSYTMGWFRQAPGKEREFVVAISKGGYKYDTVSLEARFTISKDNTKNTVYLQMNSLKPEDTAVYYCAATRAYGSSRLRLAKTYEYWGQGTQVTVSS :: 3.47

// below: OD450 requested for another binder
Task item: Please look up its OD450: V1 (VHH, also called candidate antibody V1; antibody V1) VHH: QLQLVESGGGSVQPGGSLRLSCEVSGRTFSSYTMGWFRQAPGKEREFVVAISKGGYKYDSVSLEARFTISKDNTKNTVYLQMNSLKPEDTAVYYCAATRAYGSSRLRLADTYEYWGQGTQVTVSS
Reply: 2.31
